target: RARa:RXRa (Homo sapiens, UniProt P10276;P19793 full;full); assay: no ligand; PBM; 270 nM : 90 nM RXRa; PBS pH 7.4, 2% milk, 0.02% Triton X-100, 1 mM DTT, BSA, 0.4 mg/ml salmon testes DNA; conditions: tags: His kept;His cleaved; copies: 1;1; label: surface-attached array probe
Sequence (P10276 whole entry, chain 1 of 2): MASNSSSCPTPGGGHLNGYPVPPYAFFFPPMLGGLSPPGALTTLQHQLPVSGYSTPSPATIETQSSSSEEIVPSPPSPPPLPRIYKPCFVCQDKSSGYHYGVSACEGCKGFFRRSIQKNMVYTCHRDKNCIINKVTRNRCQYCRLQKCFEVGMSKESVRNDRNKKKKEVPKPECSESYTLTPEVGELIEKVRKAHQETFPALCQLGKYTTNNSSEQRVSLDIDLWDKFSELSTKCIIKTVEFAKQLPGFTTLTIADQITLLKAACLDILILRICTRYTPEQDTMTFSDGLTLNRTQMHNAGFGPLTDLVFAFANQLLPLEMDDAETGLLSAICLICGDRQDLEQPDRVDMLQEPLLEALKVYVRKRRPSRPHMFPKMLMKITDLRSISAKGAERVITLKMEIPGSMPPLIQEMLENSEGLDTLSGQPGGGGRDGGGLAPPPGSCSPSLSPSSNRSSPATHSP
Sequence (P19793 whole entry, chain 2 of 2): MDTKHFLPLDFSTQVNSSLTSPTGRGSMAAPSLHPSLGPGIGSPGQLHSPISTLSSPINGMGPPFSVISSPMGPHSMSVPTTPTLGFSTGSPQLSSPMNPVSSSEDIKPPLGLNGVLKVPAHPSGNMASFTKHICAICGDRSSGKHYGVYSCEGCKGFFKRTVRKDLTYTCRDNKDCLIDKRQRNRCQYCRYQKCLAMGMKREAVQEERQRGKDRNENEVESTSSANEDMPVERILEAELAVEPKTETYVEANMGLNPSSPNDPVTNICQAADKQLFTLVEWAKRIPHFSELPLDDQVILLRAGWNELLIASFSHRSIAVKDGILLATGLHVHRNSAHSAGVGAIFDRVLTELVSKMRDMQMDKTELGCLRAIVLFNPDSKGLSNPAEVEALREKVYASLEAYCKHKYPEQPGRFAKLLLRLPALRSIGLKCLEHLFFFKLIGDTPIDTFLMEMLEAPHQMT
Quantity Name: binding signal

Report binding signal for NRC3_random_hg19_304_o1 (dsDNA) DNA 1: GCGGCTGTTAGCGCTCATCTCTGTGTGCCTTCACAGGCGATTGACAGCGTAGAATGAAGG DNA 2: CCTTCATTCTACGCTGTCAATCGCCTGTGAAGGCACACAGAGATGAGCGCTAACAGCCGC
-1 PBM z-score against 500 random probes
